READOUT NAME: Ki (µM)
Respond numerically; units are µM and should not be typed.

Request body: readout Ki, system UniProtKB P07711, query O=[N+]([O-])c1ccc(O)c2ncccc12 [Compound 1, 5-nitro-8-hydroxyquinoline] . Return the value.
Sequence (P07711 114-333, species assumed): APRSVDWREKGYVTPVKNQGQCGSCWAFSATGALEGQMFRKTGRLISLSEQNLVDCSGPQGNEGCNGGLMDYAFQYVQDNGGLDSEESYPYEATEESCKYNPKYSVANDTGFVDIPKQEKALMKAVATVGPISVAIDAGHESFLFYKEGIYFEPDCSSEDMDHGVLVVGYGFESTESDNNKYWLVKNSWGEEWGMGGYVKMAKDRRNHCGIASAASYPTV
175

====

- TESTED SYSTEM: Cathepsin B (Homo sapiens, UniProt P07858)
- TEST NAME: Cathepsin B endopeptidase activity, enzyme kinetics with substrate Z-RR-AMC
- Assay type: biochemical
- TEST CONDITIONS: endopeptidase activity, substrate Z-RR-AMC, pH 6.0, 37°C
Answer each item with its documented pKi.
pKi is a log-scale quantity: -log10 of the concentration expressed in molar.

Any idea what pKi was measured for O=[N+]([O-])c1ccc(O)c2ncccc12 [Compound 1, 5-nitro-8-hydroxyquinoline] ?
4.42

Any idea what pKi was measured for `CN1CCN(Cc2cc([N+](=O)[O-])c3cccnc3c2O)CC1` ?
4.12

Any idea what pKi was measured for O=[N+]([O-])c1cc(CN2CCCC(O)C2)c(O)c2ncccc12 (racemic) ?
3.96

Any idea what pKi was measured for `O=[N+]([O-])c1cc(CN2CCC(O)CC2)c(O)c2ncccc12` ?
3.89

Any idea what pKi was measured for `O=[N+]([O-])c1cc(CN2CCOCC2)c(O)c2ncccc12` ?
3.93

Any idea what pKi was measured for `O=[N+]([O-])c1cc(CN2CCCC2)c(O)c2ncccc12` ?
3.93

Any idea what pKi was measured for `CC1CCN(Cc2cc([N+](=O)[O-])c3cccnc3c2O)CC1` ?
3.89

Any idea what pKi was measured for `O=C(O)C1CCN(Cc2cc([N+](=O)[O-])c3cccnc3c2O)CC1` ?
4.05

====

- TESTED SYSTEM: cathepsin H (Homo sapiens, UniProt P09668)
- Sequence (P09668 98-335): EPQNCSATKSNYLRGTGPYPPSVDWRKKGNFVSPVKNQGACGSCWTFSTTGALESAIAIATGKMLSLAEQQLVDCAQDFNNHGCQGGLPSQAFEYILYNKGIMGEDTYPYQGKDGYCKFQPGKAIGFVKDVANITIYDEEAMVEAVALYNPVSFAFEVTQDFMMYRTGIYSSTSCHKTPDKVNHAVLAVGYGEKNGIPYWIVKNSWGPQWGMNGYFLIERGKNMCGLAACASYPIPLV
READOUT NAME: Ki (µM)
Respond numerically; units are µM and should not be typed.

Request body: readout Ki, system cathepsin H (Homo sapiens, UniProt P09668), query O=[N+]([O-])c1ccc(O)c2ncccc12 [Compound 1, 5-nitro-8-hydroxyquinoline] . Return the value.
221
